- tgt: Prothrombin (Bos taurus)
- assay.details: thrombin protease inhibitors – biochemical, fluorescence polarization, uHTS hits, dose response (AID 602369)
- Type: functional
Calls of active or inactive are those of the source. Cut-off read from the data, not from the text of the source: actives have a measured IC50 and inactives only a lower limit.
I'd appreciate it if you could supply IC50 values for the items below.

| molecule | measurement |
| --- | --- |
| COc1cccc(-c2nn(-c3ccccc3)cc2/C=C(\C#N)C(=O)NCCCn2ccnc2)c1 | 44.4 µM (active) |

# return IC50 for each item in the list
1. CCOC(=O)c1c(C)[nH]c(C(=O)OCC(=O)N(CC(C)C)c2c(N)n(Cc3ccccc3)c(=O)[nH]c2=O)c1C
2. Cc1nc(SCc2nc3cc(Cl)c(F)cc3[nH]2)c2oc3ccccc3c2n1

Result block:
33.7 µM (active)
42.5 µM (active)

Query block: Which measured IC50 value corresponds to NS(=O)(=O)c1cc(C(=O)NC2CCSc3ccccc32)ccc1Cl (centres undefined) ?
Result block: 24.5 µM (active)
